assayInfo: NCI Yeast Anticancer Drug Screen. Data for the mlh1 rad18 strain (AID 175)
conditionNotes: S. cerevisiae mlh1 rad18 strain growth inhibition; at 50.0 µM; stronger effect = higher value
Compounds without any hit were thinned out: in the full panel of roughly 79,000, 15% have a hit.
attributeMeasured: growth inhibition (%)
// return numeric value only (unit: %, not printed)

Completed entries (count: 8):
CC(C)OP(=S)(OC(C)C)SSSP(=S)(OC(C)C)OC(C)C	6.25
CC1CC2OC(=O)C(CN3CC3)C2CC2(C)C(O)CC(O)C12 (stereo not given)	26.1
Cc1ccc(Cl)c([N+](=O)[O-])c1	-9.75
O=[N+]([O-])/C=C\c1ccccc1	79
CN(C)c1ccccc1CN1CCCN(Cc2ccccc2N(C)C)C1c1ccc(N(CCCl)CCCl)cc1	90.8
CC(=O)C(C(C)=O)C(C)=O.CC(=O)C(C(C)=O)C(C)=O.CC(=O)C(C(C)=O)C(C)=O.[Cr]	5.25
c1ccc(N2CCN(Cc3c[nH]c4ccccc34)CC2)cc1	-9.6
O=c1c2ccccc2oc2ccccc12 (tested in a mixture with another compound)	17.1

Asked: # get_value(readout='growth inhibition', item= "CCCCCCCCCCBr" )
Given back: -37.6

Asked: Would you kindly share the measured growth inhibition for "Cc1csc2n/c(=N/[N+](=O)[O-])sn12" ?
Given back: 44.1

Asked: Fill in: growth inhibition of "COc1cc(/C=C(/C)[N+](=O)[O-])c([N+](=O)[O-])cc1OC" is ___
Given back: 71.7

Asked: Bench note: what growth inhibition did "OCCN=Cc1ccccc1O.OCCN=Cc1ccccc1O.[Ni]" show?
Given back: 18.4

Asked: Recorded growth inhibition for CC1CC[N-]C(C)C1.CN(C)C=O.[Cl][Pt][Cl] (stereo not given) , please?
Given back: 89.8

Asked: growth inhibition lookup needed for O=[As]c1cccc2ccccc12 (stereo not given) , thanks.
Given back: 99.3

Asked: Requested field: growth inhibition. Item: "O=[N+]([O-])c1ccc(CS(=O)(=O)C(Cl)Cl)o1"
Given back: 95.6

Asked: What measured growth inhibition goes with "O=C(Cc1cccc([N+](=O)[O-])c1)Nc1cccc(S(=O)(=O)F)c1" ?
Given back: 23.9

Asked: Given "Cc1ccc(S(=O)(=O)F)cc1" , state its recorded growth inhibition.
Given back: 9.5

Asked: What growth inhibition value was documented for this compound, "Cc1cnc2ncn(Cc3c[nH]c(=O)[nH]c3=O)c(=O)c2c1" ?
Given back: -11.5

Asked: For the compound "[N-]=[N+]=Nc1nc2ccccc2c(N=[N+]=[N-])c1Cl" , what growth inhibition is on record?
Given back: 9.45

* * *

assayInfo: NCI Yeast Anticancer Drug Screen. Data for the rad50 strain (AID 155);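 note: 0% = growth of vehicle-only cultures of the same strain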
conditionNotes: S. cerevisiae rad50 strain growth inhibition; at 5.0 µM (retest, dose inferred, filed as 0.5); stronger effect = higher value
This is part of a sample that, as a whole, favours compounds with a hit. Of some 79,000 tested, about 15% had one in any assay.
Quick reference for growth inhibition among some compounds
Provide the reading as a plain figure in %.

CC12C(=O)C=CCC1=CCC1C2CCC2(O)C(=O)OC3(C)C4CC5(C)C(COC16OC23C5C6=O)C(=O)O4 (stereo not given)	11

Asked: Reported growth inhibition for COC(=O)C1=C(C(=O)OC)C2(OC(C)=O)c3ccccc3-c3ccccc3C12 (stereo not given) : what is it?
Given back: 72

Asked: Which growth inhibition value is on record for COC1CCC(OC2CC(C3(C)CCC4(CC(O)C(C)C(C(C)/C=C(\C)C(=O)C(C)CC(C)C(=O)O)O4)O3)OC3(OC(C4OC(O)(CO)C(C)CC4C)CC3C)C2C)OC1C (stereo not given) ?
Given back: 7

Asked: // growth inhibition lookup, key: O=C1C(CCl)(CCl)CCC12CNC(Cl)(Cl)C2 (stereo not given)
Given back: -1

Asked: Dear colleague, I am looking for the recorded growth inhibition of the following compound: COC(=O)c1ccc([As]=O)cc1N (stereo not given)
Given back: 2

* * *

assayInfo: NCI Yeast Anticancer Drug Screen. Data for the rad50 strain (AID 155);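 note: 0% = growth of vehicle-only cultures of the same strain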
conditionNotes: S. cerevisiae rad50 strain growth inhibition; at 50.0 µM; stronger effect = higher value
About 79,000 compounds went through this panel and 15% of them were active in at least one assay; those are over-represented in the sample as a whole.
attributeMeasured: growth inhibition (%)
Report as a plain number; the unit % is understood.

Known results for molecules:
O=C(NCCNC(=O)Nc1ccccc1S(=O)(=O)F)Nc1ccccc1S(=O)(=O)F	-17
CC1=C(C#N)C2(CCN(C)CC2)C(C#N)=C(C)N1	13.3
C/C(=N\N=C(/[Se])N1CCC(C)CC1)c1ccccn1	94.5

// below: growth inhibition requested for another molecule
Asked: Item "O=P1(C(Cl)Cl)OCCCO1" has what recorded growth inhibition?
Given back: -9.35

* * *

assayInfo: NCI Yeast Anticancer Drug Screen. Data for the mec2-1 strain (AID 157)
conditionNotes: S. cerevisiae mec2-1 strain, at 50.0 µM, stronger effect = higher value
About 79,000 compounds went through this panel and 15% of them were active in at least one assay; those are over-represented in the sample as a whole.
Reported growth inhibition values for a set of compounds
# number only, unit % dropped from output

See these solved cases before continuing.
COc1cc([C@@H]2c3cc4c(cc3C[C@H]3COC(=O)[C@@H]32)OCO4)cc(OC)c1OC	-3.05
COc1c2c(nc3ccccc13)-c1cc3c(c(=O)n1C2)COC(=O)C3(O)CC(=O)N1CCOCC1 (configuration not stated)	-4.25
NNC(=O)NC(=O)NN	5.4
C1OCC2[CH2][Hg][S][Hg][CH2]C1O2	94.8
COc1ccc(N2CC=C(c3ccccc3)OP2(=O)N2CC2)cc1 (configuration not stated)	25.9

Asked: What does the record list as growth inhibition for CC12CCC3C(CCC4Cc5nc6nnnn6cc5CC43C)C1CCC2O (configuration not stated) ?
Given back: 40.9

Asked: Param item = "CNC1(c2ccccc2)CC1" ; retrieve measured growth inhibition.
Given back: -12.2

Asked: Quick one: growth inhibition of "O=[N+]([O-])c1ccc([N+](=O)[O-])c2ccccc12" ?
Given back: 61.7

Asked: What value of growth inhibition has been recorded for this entry: CN(Cc1cnc2nc(N)nc(N)c2n1)c1ccc(C(=O)NC(CCC(=O)NCC(P(=O)(O)O)P(=O)(O)O)C(=O)O)cc1 (configuration not stated)
Given back: -28.2

Asked: Consider the compound CC1(C)OC(C=O)C2CC(=O)c3c(O)cccc3C2(C)O1 (configuration not stated) and give its measured growth inhibition.
Given back: -1.45

Asked: Query: growth inhibition; subject: "O=C(CF)NCCCl"
Given back: -8.8

Asked: Look up growth inhibition for this compound: "C(/COc1cccnc1)=N\NC1=NCCN1"
Given back: -29.6

* * *

assayInfo: NCI Yeast Anticancer Drug Screen. Data for the bub3 strain (AID 167)
conditionNotes: S. cerevisiae bub3 mutant strain, at 50.0 µM, stronger effect = higher value
Compounds without any hit were thinned out: in the full panel of roughly 79,000, 15% have a hit.
attributeMeasured: growth inhibition (%)
Give the value, in units of %, as a plain number.

Example entries begin here.
CCCC1C(=O)NC(=O)NC1=O	3.75
CCC[CH2][Pb]([CH2]CCC)([CH2]CCC)[O]C(C)=O	25
COC(=O)C(C)N(CCCl)P(=O)(N1CC1)N1CC1 (configuration not stated)	4.35
CCOP(=O)(CC)C(Cl)(Cl)Cl (configuration not stated)	6.05
CC(CC(C#N)(c1ccccc1)c1ccccc1)[N+]1(C)CCCCCCC1 (configuration not stated)	1.35

Asked: Given CC(=O)c1ccc(NC(O)C(Cl)(Cl)Cl)cc1 (configuration not stated) , state its recorded growth inhibition.
Given back: 18.8

Asked: Record request: growth inhibition value, item "O=C1NC(=S)NC(=O)C1=Cc1ccc(-c2ccccc2)cc1"
Given back: 13.3

* * *

assayInfo: NCI Yeast Anticancer Drug Screen. Data for the sgs1 mgt1 strain (AID 161);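 note: 0% = growth of cultures given vehicle only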
conditionNotes: S. cerevisiae sgs1 mgt1 strain, at 50.0 µM, stronger effect = higher value
This is part of a sample that, as a whole, favours compounds with a hit. Of some 79,000 tested, about 15% had one in any assay. Active and inactive are the calls of the source. Rule as the data show it: active = growth inhibition above about 70%; inactive = the rest.
List of growth inhibition values.

Example results:
O=C(N/N=C/c1cc(Br)cc(Br)c1[O-])c1ccccc1O.O=C(N/N=C/c1cc(Br)cc(Br)c1[O-])c1ccccc1O.[Co+2]	94.8% (active)
C[n+]1c(/C=C/c2ccc(O)c3ccccc23)[se]c2ccccc21	87.1% (active)
CCC[N+](CCC)(CCC)CCC.[Ni+2].[SH2+]C([SH2+])=Nc1ccccc1.[SH2+]C([SH2+])=Nc1ccccc1	9.6% (inactive)
CN(C)CCCCCCN(C)C	-12.5% (inactive)
C[N+]1([O-])[C@H]2CC(OC(=O)[C@H](CO)c3ccccc3)C[C@H]1[C@H]1O[C@H]12 (some centres not stated)	-14.9% (inactive)

Asked: Returns the measured growth inhibition for the input molecule. Input: "CC(=O)[C-](Cl)C(C)=O.CC(=O)[C-](Cl)C(C)=O.CC(=O)[C-](Cl)C(C)=O.[Ru+3]"
Given back: 53.8% (inactive)

Asked: // lookup growth inhibition for CC1=CC(C(=O)O)P(C)(=O)C1 (configuration not stated)
Given back: -12.3% (inactive)

Asked: Quick check: growth inhibition of "COc1ccc(C[C@H]2NC[C@H](O)[C@H]2OC(C)=O)cc1" ?
Given back: 92.3% (active)

Asked: Query (molecule): "CCCCCCCCCCCC[C@@H](O)[C@H]1CC[C@H]([C@H](O)CCCC[C@H](O)CCCCC[C@@H](O)CC2=C[C@H](C)OC2=O)O1" ; field requested: growth inhibition
Given back: -20.8% (inactive)

Asked: // lookup growth inhibition for "c1cc2c3c(cccc3c1)CC2"
Given back: -0.65% (inactive)

Asked: Field request: growth inhibition | item: "COc1cccc(C=C(C#N)C#N)c1OC"
Given back: -3.35% (inactive)

Asked: // returns reported growth inhibition for input "O=C1C(Cl)=C(Cl)C(=O)c2ccccc21"
Given back: 98.2% (active)

Asked: # lookup: growth inhibition of "Cc1ccccc1N"
Given back: -1.15% (inactive)

Asked: Fill in the blank: the reported growth inhibition of "O=C(O)c1ccc(I)cc1.[Ni]" is ____.
Given back: 57.1% (inactive)

Asked: I have this molecule here, "SCc1c(Cl)c(Cl)c(Cl)c(Cl)c1Cl.[Hg]" , and I need its recorded growth inhibition.
Given back: -15.5% (inactive)

Asked: Given the entry "CC[C@@H]1C(=O)OC[C@@H]1Cc1cncn1C" , report its measured growth inhibition.
Given back: -20.9% (inactive)

Asked: Looking for the measured growth inhibition of O=C(SCC(NSc1ccccc1[N+](=O)[O-])C(=O)O)c1ccccc1 (configuration not stated) , can you help?
Given back: 75.4% (active)
